assay-info: Phototoxicity against human NCI-H1299 cells assessed as reduction in cell viability preincubated for 24 hrs followed by 7.5 to 10 mW/cm^-2 red light irradiation and measured after 24 hrs by MTT assay
Format: functional, cell-based
applied-conditions: NCI-H1299, light or radiation study
Here, each record is paired with measured IC50 data.
Hi! Could you send only the number? It should be in nM, unit omitted.

C/C(=N\NS(=O)(=O)c1ccc(C)cc1)c1c2nc(c(-c3ccccc3)c3ccc([nH]3)c3ccc([nH]3)c(-c3ccccc3)c3ccc1[nH]3)C=C2 | 52.3

Prompt: State the recorded IC50 for this entry: "C/C(=N\NS(=O)(=O)c1ccc(C)cc1)c1c2nc(c(-c3ccc(O)cc3)c3ccc([nH]3)c3ccc([nH]3)c(-c3ccc(O)cc3)c3ccc1[nH]3)C=C2"
Response: 277

Prompt: Can you share its IC50? I mean this compound: "CC(C)(C)OC(=O)N/N=C(\c1ccccc1)c1c2nc(c(-c3ccccc3)c3ccc([nH]3)c3ccc([nH]3)c(-c3ccccc3)c3ccc1[nH]3)C=C2"
Response: 538

Reference for the values: ChEMBL document CHEMBL6087389
